Reference source: ChEMBL document CHEMBL2321673

biological target: UniProt:P03887; assay: Inhibition of bovine heart mitochondrial complex 1
Sequence (P03887 whole entry): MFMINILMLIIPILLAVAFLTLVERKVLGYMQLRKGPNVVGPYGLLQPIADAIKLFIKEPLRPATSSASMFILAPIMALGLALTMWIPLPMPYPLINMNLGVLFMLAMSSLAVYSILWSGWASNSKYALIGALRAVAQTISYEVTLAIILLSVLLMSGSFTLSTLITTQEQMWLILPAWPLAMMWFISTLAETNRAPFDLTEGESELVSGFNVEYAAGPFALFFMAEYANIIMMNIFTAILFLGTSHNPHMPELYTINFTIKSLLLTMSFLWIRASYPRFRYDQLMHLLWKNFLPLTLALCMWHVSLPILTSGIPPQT
Please respond with reported IC50 for every item in the list.
The reply should contain only the number, in µM.

Qu. What does the record list as IC50 for CCCCCCCCCCCC[C@@H](O)[C@H]1CC[C@H]([C@H](O)CCCCCCCCCCCCC2=C[C@@H](C(F)(F)F)OC2=O)O1 ?
Ans. 0.57

Qu. What does the record list as IC50 for CCCCCCCCCCCC[C@@H](O)[C@H]1CC[C@H]([C@H](O)CCCCCCCCCCCCC2=C[C@@H](C)OC2=O)O1 ?
Ans. 0.27

Qu. What does the record list as IC50 for CCCCCCCCCCCC[C@@H](O)[C@H]1CC[C@H]([C@H](O)CCCCCCCCCCCCC2=C[C@H](C)OC2=O)O1 ?
Ans. 0.0021

Qu. What does the record list as IC50 for CCCCCCCCCCCC[C@@H](O)[C@H]1CC[C@H]([C@H](O)CCCCCCCCCCCCC2=C[C@H](CF)OC2=O)O1 ?
Ans. 0.0029

Qu. What does the record list as IC50 for CCCCCCCCCCCC[C@@H](O)[C@H]1CC[C@H]([C@H](O)CCCCCCCCCCCCC2=C[C@H](C(F)(F)F)OC2=O)O1 ?
Ans. 0.31

Qu. What does the record list as IC50 for CCCCCCCCCCCC[C@@H](O)[C@H]1CC[C@H]([C@H](O)CCCCCCCCCCCCC2=C[C@H](C(F)F)OC2=O)O1 ?
Ans. 0.031
